Target: IRAK4 (Homo sapiens, UniProt Q9NWZ3)
Construct: endogenous in cells; host or cells: OCI-LY10
Sequence (Q9NWZ3 whole entry): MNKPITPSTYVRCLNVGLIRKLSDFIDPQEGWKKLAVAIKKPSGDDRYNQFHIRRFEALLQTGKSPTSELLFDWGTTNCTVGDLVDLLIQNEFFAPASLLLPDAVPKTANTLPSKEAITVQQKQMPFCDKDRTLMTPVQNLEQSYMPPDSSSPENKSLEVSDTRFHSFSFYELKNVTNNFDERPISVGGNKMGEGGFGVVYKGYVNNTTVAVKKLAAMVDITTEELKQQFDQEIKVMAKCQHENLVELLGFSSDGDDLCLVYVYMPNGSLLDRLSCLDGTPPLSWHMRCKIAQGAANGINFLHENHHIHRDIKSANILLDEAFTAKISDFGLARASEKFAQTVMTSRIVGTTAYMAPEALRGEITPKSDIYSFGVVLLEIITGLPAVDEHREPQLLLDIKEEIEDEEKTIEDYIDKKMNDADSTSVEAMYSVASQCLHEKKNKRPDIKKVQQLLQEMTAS
Experiment: IRAK4 MSD Degradation in OCI-LY10
Type: cell-based
Details: OCI-LY10 cells, 24 hrs incubation, read-out: IRAK4 degradation in OCI-LY10 at 24 hrs: DC50
endpoint: DC50

Worked cases, DC50 given:
{"molecule": "COc1cc2nn([C@H]3CC[C@H](CN4CC5(CC(CNc6cccc7c6C(=O)N(C6CCC(=O)NC6=O)C7=O)C5)C4)CC3)cc2cc1NC(=O)c1cccc(C(F)(F)F)n1 (stereo partly shown)", "DC50": "50 to 100 nM"}
{"molecule": "CN(CCCO[C@H]1C[C@H](Nc2cccc3c2C(=O)N(C2CCC(=O)NC2=O)C3=O)C1)C[C@@]1(C)Cc2cc(NC(=O)c3cccc(C(F)(F)F)n3)c(N3CCOCC3)cc2O1 (stereo partly shown)", "DC50": "500 to 1000 nM"}
{"molecule": "COc1cc2nc([C@H]3CC[C@H](CN4CC5(CCC(CNc6cccc7c6C(=O)N(C6CCC(=O)NC6=O)C7=O)CC5)C4)CC3)oc2cc1NC(=O)c1cccc(C(C)(F)F)n1 (stereo partly shown)", "DC50": "50 to 100 nM"}

Batch: DC50 for all items listed.
1. Cc1cccc(C(=O)Nc2cc3cn([C@H]4CC[C@H](CN5CCC(COCCCNc6cccc7c6C(=O)N(C6CCC(=O)NC6=O)C7=O)CC5)CC4)nc3cc2C(C)(C)O)n1 (stereo partly shown)
2. COc1cc2nn([C@H]3CC[C@H](CN(C)[C@H]4CC[C@]5(CC4)C[C@@H](CNc4cccc6c4C(=O)N(C4CCC(=O)NC4=O)C6=O)C5)CC3)cc2cc1NC(=O)c1cccc(C(F)(F)F)n1 (stereo partly shown)
3. CC(C)(O)c1cc2nn([C@H]3CC[C@H](CN4CCC(COCCCNc5cccc6c5C(=O)N(C5CCC(=O)NC5=O)C6=O)CC4)CC3)cc2cc1NC(=O)c1cccc(C(C)(C)F)n1 (stereo partly shown)

< 50 nM
50 to 100 nM
50 to 100 nM

Which measured DC50 value corresponds to O=C1CCC(N2C(=O)c3cccc(NCCC4CC5(CCN(C[C@H]6CC[C@H](n7cc8cc(NC(=O)c9cccc(C(F)(F)F)n9)c(OC(F)F)cc8n7)CC6)CC5)C4)c3C2=O)C(=O)N1 (stereo partly shown) ?
50 to 100 nM
